study.target: Recombinant human SphK2 (Homo sapiens, UniProt Q9NRA0)
Sequence (Q9NRA0 whole entry): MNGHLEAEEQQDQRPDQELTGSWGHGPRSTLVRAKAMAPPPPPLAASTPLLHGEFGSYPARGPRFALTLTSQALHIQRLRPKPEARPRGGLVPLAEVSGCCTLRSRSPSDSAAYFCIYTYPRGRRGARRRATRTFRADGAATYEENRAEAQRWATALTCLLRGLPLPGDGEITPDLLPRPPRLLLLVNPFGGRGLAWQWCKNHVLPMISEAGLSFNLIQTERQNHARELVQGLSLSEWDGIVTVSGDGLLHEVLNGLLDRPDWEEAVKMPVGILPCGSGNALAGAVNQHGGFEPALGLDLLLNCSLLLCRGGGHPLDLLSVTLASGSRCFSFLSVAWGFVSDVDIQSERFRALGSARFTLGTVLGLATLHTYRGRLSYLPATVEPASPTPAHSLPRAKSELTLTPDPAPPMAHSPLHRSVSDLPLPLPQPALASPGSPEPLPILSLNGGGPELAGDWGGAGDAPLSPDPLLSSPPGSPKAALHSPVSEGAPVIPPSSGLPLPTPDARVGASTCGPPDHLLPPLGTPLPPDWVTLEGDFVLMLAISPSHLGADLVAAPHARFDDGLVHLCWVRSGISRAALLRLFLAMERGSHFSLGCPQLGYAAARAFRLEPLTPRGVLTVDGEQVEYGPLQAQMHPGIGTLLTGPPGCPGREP
test: Recombinant hSphK2 cell lysate assay
Assay type: biochemical
applied.conditions: read-out: % SphK2 Inhibition
Measured inhibition at 0.3 µM, listed per entry.

compound	inhibition at 0.3 µM / %
CCCc1ccc(CCc2ccc(CN3CCC[C@@H]3CO)cc2)cc1 [29a]	3
OC[C@H]1CCCN1Cc1ccc(/C=C/c2cccc(C(F)(F)F)c2)cc1 [25b]	13
CCCCCc1ccc(CCc2ccc(CN3CCC[C@@H]3CO)cc2)cc1 [29c]	15
Cc1cc(/C=C/c2ccc(C(C)(C)C)cc2)ccc1CN1CCC[C@@H]1CO [25a]	0
CCCCCCCCCCCc1ccc(CN2CCC[C@@H]2COC(C)=O)cc1 [22h]	26
Cc1ccc(CCc2ccc(CN3CCC[C@@H]3CO)cc2)cc1 [22f]	3
COc1ccc(CCc2ccc(CN3CCC[C@@H]3CO)cc2)cc1 [22g]	2

###

study.target: Recombinant human SphK1 (Homo sapiens)
test: biochemical
applied.conditions: read-out: % SphK1 Inhibition
property.label: inhibition at 1 µM (%)

compound	numeric.readout
CCCc1ccc(CCc2ccc(CN3CCC[C@@H]3CO)cc2)cc1 [29a]	29
CCCCCc1ccc(CCc2ccc(CN3CCC[C@@H]3CO)cc2)cc1 [29c]	36
Cc1ccc(CCc2ccc(CN3CCC[C@@H]3CO)cc2)cc1 [22f]	4

###

study.target: Recombinant human SphK1 (Homo sapiens, UniProt Q9NYA1)
Sequence (Q9NYA1 whole entry): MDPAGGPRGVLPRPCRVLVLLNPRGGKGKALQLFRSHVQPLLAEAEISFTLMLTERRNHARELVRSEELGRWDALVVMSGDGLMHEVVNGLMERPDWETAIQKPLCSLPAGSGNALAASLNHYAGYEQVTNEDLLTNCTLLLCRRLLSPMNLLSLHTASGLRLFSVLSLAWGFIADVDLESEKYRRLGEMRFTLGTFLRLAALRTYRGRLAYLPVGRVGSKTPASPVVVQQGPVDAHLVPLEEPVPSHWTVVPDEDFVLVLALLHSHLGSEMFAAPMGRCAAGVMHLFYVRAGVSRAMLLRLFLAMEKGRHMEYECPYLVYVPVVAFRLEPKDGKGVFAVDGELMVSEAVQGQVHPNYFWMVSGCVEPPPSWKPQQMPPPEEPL
test: biochemical
applied.conditions: read-out: % SphK1 Inhibition
property.label: inhibition at 1 µM (%)

compound	numeric.readout
Cc1cc(/C=C/c2ccc(C(C)(C)C)cc2)ccc1CN1CCC[C@@H]1CO [25a]	23
CCCCc1ccc(CCc2ccc(CN3CCC[C@@H]3CO)cc2)cc1 [29b]	31
COc1ccc(CCc2ccc(CN3CCC[C@@H]3CO)cc2)cc1 [22g]	8
OC[C@H]1CCCN1Cc1ccc(/C=C/c2cccc(C(F)(F)F)c2)cc1 [25b]	45
CCCCCCCCCCCc1ccc(CN2CCC[C@@H]2COC(C)=O)cc1 [22h]	47

Measured values drawn from paper PMC8862572 for this set.
